Biological target: T1, FZD8 CRD (Homo sapiens, UniProt Q9H461)
T1 construct: K31-D155; GPI anchor signal (C); expressed in transfected cells; host or cells: CHO cells, lentiviral pLenti-puro
T1 sequence (Q9H461 31-155): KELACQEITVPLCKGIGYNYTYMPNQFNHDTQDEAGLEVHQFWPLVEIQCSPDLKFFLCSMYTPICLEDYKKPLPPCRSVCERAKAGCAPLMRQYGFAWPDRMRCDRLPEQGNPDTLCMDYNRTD
Test: Flow cytometry of anti-FZD5 Fab binding to CHO cells overexpressing Frizzled CRD
observation_type: Median fluorescence, Frizzled CRD overexpressed on CHO cells: FZD8
One number for each entry.

Let me know recorded Median fluorescence, Frizzled CRD overexpressed on CHO cells: FZD8 for Fab-2909: anti-FZD5 Fab with antibody variable region Fv-2909; CDR SEQ ID NOs: 35, 36, 48, 87, 124, 161 (antibody, V domains shown) VH: EVQLVESGGGLVQPGGSLRLSCAASGFNISSSYMHWVRQAPGKGLEWVASISSSSGYTSYADSVKGRFTISADTSKNTAYLQMNSLRAEDTAVYYCARTVRGSKKPYFSGWAMDYWGQGTLVTVSS VL: DIQMTQSPSSLSASVGDRVTITCRASQSVSSAVAWYQQKPGKAPKLLIYSASSLYSGVPSRFSGSRSGTDFTLTISSLQPEDFATYYCQQSWSYHYLITFGQGTKVEIK , thanks.
7.43

Source: patent US20210253718A1
